For each record, write down the corresponding GI50.
System: CAKI-1
RUN DESCRIPTION: Growth inhibition of human Caki1 cells
Format: functional
Write the answer as a number in nM, unit excluded.

Enquiry: Entry C=C1CCCC(C)(C)C1CCC1(C)CC[C@H]([C@@H](C)C(=O)O)OO1 (single isomer, unassigned) [NAPAPUIN B] needs its GI50 filled in; supply it.
Return: 2000

Enquiry: Entry C=C1CCC[C@H]2[C@](C)(CC[C@]3(C)CC[C@@H]([C@@H](C)C(=O)O)OO3)[C@@H](C)CC[C@]12C [SIGMOSCEPTRELLIN C] needs its GI50 filled in; supply it.
Return: 600

Enquiry: Entry C=C1CCCC(C)(C)C1CC[C@]1(C)CC[C@H]([C@@H](C)C(=O)OC)OO1 (stereo not given in full) [NUAPAPUIN B] needs its GI50 filled in; supply it.
Return: 320

Enquiry: Entry C=C1CCC[C@H]2[C@](C)(CC[C@]3(C)CC[C@H]([C@@H](C)C(=O)O)OO3)[C@@H](C)CC[C@]12C [SIGMOSCEPTRELLIN A] needs its GI50 filled in; supply it.
Return: 1760

---

RUN DESCRIPTION: Growth inhibition of human MCF7/ADR resistant cells
Assay type: functional
RUN CONDITIONS: NCI/ADR-RES
MEASURED ATTRIBUTE: GI50

Enquiry: Entry C=C1CCCC(C)(C)C1CCC1(C)CC[C@H]([C@@H](C)C(=O)O)OO1 (single isomer, unassigned) needs its GI50 filled in; supply it.
Return: 8.78 µM

Enquiry: Entry C=C1CCC[C@H]2[C@](C)(CCC(C)=O)[C@@H](C)CC[C@]12C needs its GI50 filled in; supply it.
Return: > 15 µM

Enquiry: Entry C=C1CCC[C@H]2[C@](C)(CC[C@]3(C)CC[C@@H]([C@@H](C)C(=O)O)OO3)[C@@H](C)CC[C@]12C needs its GI50 filled in; supply it.
Return: 0.77 µM

Enquiry: Entry C=C1CCCC(C)(C)C1CC[C@]1(C)CC[C@@H]([C@@H](C)C(=O)O)OO1 (stereo not given in full) [EPINUAPAPUIN B] needs its GI50 filled in; supply it.
Return: > 10 µM

Enquiry: Entry CC(=O)CC/C=C(\C)CCC1=C(C)CCCC1(C)C needs its GI50 filled in; supply it.
Return: > 15 µM

Enquiry: Entry C=C1CCCC(C)(C)C1(O)CC/C(C)=C/CC[C@]1(C)CC[C@@H]([C@@H](C)C(=O)OC)OO1 (stereo not given in full) needs its GI50 filled in; supply it.
Return: > 17.5 µM

Enquiry: Entry COC(=O)[C@H](C)[C@H]1CC[C@@](C)(CCC2=C(C)CCCC2(C)C)OO1 needs its GI50 filled in; supply it.
Return: > 25 µM

Enquiry: Entry CC1=C(CC/C(C)=C/CC[C@@]2(C)CC[C@@H]([C@H](C)C(=O)O)OO2)C(C)(C)CCC1 [EPIMUQUBILIN A] needs its GI50 filled in; supply it.
Return: > 100 µM

Enquiry: Entry C=C1CCCC(C)(C)C1CC[C@]1(C)CC[C@H]([C@@H](C)C(=O)OC)OO1 (stereo not given in full) needs its GI50 filled in; supply it.
Return: 5.67 µM

Enquiry: Entry CC1=C(CC/C(C)=C/CC[C@@]2(C)CC[C@H]([C@H](C)C(=O)O)OO2)C(C)(C)CCC1 needs its GI50 filled in; supply it.
Return: > 5 µM

---

For each record, write down the corresponding Activity.
Tested on: P388
RUN DESCRIPTION: Growth inhibition of mouse P388 cells assessed as zone units at 50 ug/disk by disk diffusion agar colony formation assay
Format: functional
Number first, unit second.

Enquiry: Identify measured Activity obtained with P388 for C=C1CCC[C@H]2[C@](C)(CC[C@]3(C)CC[C@H]([C@@H](C)C(=O)O)OO3)[C@@H](C)CC[C@]12C .
Return: 230 Zone units

Enquiry: Identify measured Activity obtained with P388 for CC1=C(CC/C(C)=C/CC[C@@]2(C)CC[C@@H]([C@H](C)C(=O)O)OO2)C(C)(C)CCC1 [EPIMUQUBILIN A] .
Return: 50 Zone units

Enquiry: Identify measured Activity obtained with P388 for C=C1CCCC(C)(C)C1(O)CC/C(C)=C/CC[C@]1(C)CC[C@@H]([C@@H](C)C(=O)OC)OO1 (some centres not stated) .
Return: 80 Zone units

Enquiry: Identify measured Activity obtained with P388 for CC(=O)CC/C=C(\C)CCC1=C(C)CCCC1(C)C .
Return: 60 Zone units

Enquiry: Identify measured Activity obtained with P388 for C=C1CCCC(C)(C)C1CC[C@]1(C)CC[C@@H]([C@@H](C)C(=O)O)OO1 (some centres not stated) [EPINUAPAPUIN B] .
Return: 160 Zone units

Enquiry: Identify measured Activity obtained with P388 for COC(=O)[C@H](C)[C@H]1CC[C@@](C)(CCC2=C(C)CCCC2(C)C)OO1 .
Return: 400 Zone units

Enquiry: Identify measured Activity obtained with P388 for C=C1CCC[C@H]2[C@](C)(CC[C@]3(C)CC[C@@H]([C@@H](C)C(=O)O)OO3)[C@@H](C)CC[C@]12C .
Return: 220 Zone units

---

For each record, write down the corresponding GI50.
Test system: SK-MEL-2
RUN DESCRIPTION: Growth inhibition of human SK-MEL-2 cells
Type: functional

Enquiry: Entry C=C1CCCC(C)(C)C1CCC1(C)CC[C@H]([C@@H](C)C(=O)O)OO1 (single isomer, unassigned) needs its GI50 filled in; supply it.
Return: 5.06 µM

Enquiry: Entry COC(=O)[C@H](C)[C@H]1CC[C@@](C)(CCC2=C(C)CCCC2(C)C)OO1 needs its GI50 filled in; supply it.
Return: > 25 µM

Enquiry: Entry C=C1CCC[C@H]2[C@](C)(CCC(C)=O)[C@@H](C)CC[C@]12C needs its GI50 filled in; supply it.
Return: > 15 µM

Enquiry: Entry C=C1CCC[C@H]2[C@](C)(CC[C@]3(C)CC[C@H]([C@@H](C)C(=O)O)OO3)[C@@H](C)CC[C@]12C needs its GI50 filled in; supply it.
Return: 2.17 µM

Enquiry: Entry C=C1CCCC(C)(C)C1(O)CC/C(C)=C/CC[C@]1(C)CC[C@@H]([C@@H](C)C(=O)OC)OO1 (stereo partly specified) needs its GI50 filled in; supply it.
Return: > 17.5 µM

Enquiry: Entry C=C1CCC[C@H]2[C@](C)(CC[C@]3(C)CC[C@@H]([C@@H](C)C(=O)O)OO3)[C@@H](C)CC[C@]12C needs its GI50 filled in; supply it.
Return: > 5 µM

Enquiry: Entry CC1=C(CC/C(C)=C/CC[C@@]2(C)CC[C@H]([C@H](C)C(=O)O)OO2)C(C)(C)CCC1 needs its GI50 filled in; supply it.
Return: > 5 µM

Enquiry: Entry CC1=C(CC/C(C)=C/CC[C@@]2(C)CC[C@@H]([C@H](C)C(=O)O)OO2)C(C)(C)CCC1 [EPIMUQUBILIN A] needs its GI50 filled in; supply it.
Return: > 100 µM

Enquiry: Entry C=C1CCCC(C)(C)C1CC[C@]1(C)CC[C@@H]([C@@H](C)C(=O)O)OO1 (stereo partly specified) [EPINUAPAPUIN B] needs its GI50 filled in; supply it.
Return: > 10 µM

Enquiry: Entry C=C1CCCC(C)(C)C1CC[C@]1(C)CC[C@H]([C@@H](C)C(=O)OC)OO1 (stereo partly specified) needs its GI50 filled in; supply it.
Return: 8.28 µM

Enquiry: Entry CC(=O)CC/C=C(\C)CCC1=C(C)CCCC1(C)C needs its GI50 filled in; supply it.
Return: > 15 µM

---

Tested on: EKVX
RUN DESCRIPTION: Growth inhibition of human EKVX cells
Format: functional
For each record, write down the corresponding GI50.

Enquiry: Identify measured GI50 obtained with EKVX for COC(=O)[C@H](C)[C@H]1CC[C@@](C)(CCC2=C(C)CCCC2(C)C)OO1 [NUAPAPUIN A METHYL ESTER] .
Return: > 25 µM

Enquiry: Identify measured GI50 obtained with EKVX for C=C1CCC[C@H]2[C@](C)(CC[C@]3(C)CC[C@H]([C@@H](C)C(=O)O)OO3)[C@@H](C)CC[C@]12C [SIGMOSCEPTRELLIN A] .
Return: 1.17 µM

Enquiry: Identify measured GI50 obtained with EKVX for C=C1CCCC(C)(C)C1CCC1(C)CC[C@H]([C@@H](C)C(=O)O)OO1 (single isomer, unassigned) [NAPAPUIN B] .
Return: 3.19 µM

Enquiry: Identify measured GI50 obtained with EKVX for CC1=C(CC/C(C)=C/CC[C@@]2(C)CC[C@H]([C@H](C)C(=O)O)OO2)C(C)(C)CCC1 .
Return: > 5 µM

Enquiry: Identify measured GI50 obtained with EKVX for C=C1CCCC(C)(C)C1(O)CC/C(C)=C/CC[C@]1(C)CC[C@@H]([C@@H](C)C(=O)OC)OO1 (some centres not stated) [MUQUBILIN B] .
Return: > 17.5 µM

Enquiry: Identify measured GI50 obtained with EKVX for C=C1CCCC(C)(C)C1CC[C@]1(C)CC[C@@H]([C@@H](C)C(=O)O)OO1 (some centres not stated) [EPINUAPAPUIN B] .
Return: > 10 µM

Enquiry: Identify measured GI50 obtained with EKVX for CC1=C(CC/C(C)=C/CC[C@@]2(C)CC[C@@H]([C@H](C)C(=O)O)OO2)C(C)(C)CCC1 [EPIMUQUBILIN A] .
Return: > 100 µM
